Reported EC50 values for a set of compounds
test system: HCV subgenomic reporter replicon of genotype 1b (strain Con1); assay: Anti-HCV 1b activity, luciferase reporter replicon assay in Huh5-2 cells; type: cell-based, Hepatitis C virus; settings: Hepatitis C virus, Huh-5-2, 72 h, read-out: HCV Replicon 1b EC50
Your answer should be a plain number; it is taken to be in nM.

State the recorded EC50 for this entry: `CCOC(=O)N[C@@H](C(=O)N1CCC[C@H]1C(=O)Nc1ccc2c(c1)Cc1cc(NC(=O)[C@@H]3CCCN3C(=O)[C@H](NC(=O)OCC)c3ccccc3)ccc1-2)c1ccccc1` 0.036

----------
Below, each entry is listed with its recorded EC50.
tested on: HCV subgenomic reporter replicon of genotype 1b (strain Con1); assay: Anti-HCV 1b activity, luciferase reporter replicon assay in Huh5-2 cells; assay type: cell-based, Hepatitis C virus; details: Hepatitis C virus, Huh-5-2, 72 h, read-out: HCV Replicon 1b EC50
// note: answer is a bare numeric in nM

molecule	EC50, nM
COC(=O)N[C@H](C(=O)N1CCCC(C(=O)Nc2ccc3c(c2)Cc2cc(NC(=O)C4CCCN(C(=O)[C@@H](NC(=O)OC)c5ccccc5)C4)ccc2-3)C1)c1ccccc1 (stereo partly shown) [Compound 32]	304
CCCCOC(=O)N[C@@H](C(=O)N1CCC[C@H]1C(=O)Nc1ccc2c(c1)Cc1cc(NC(=O)[C@@H]3CCCN3C(=O)[C@H](NC(=O)OCCCC)C(C)C)ccc1-2)C(C)C [Compound 7]	981
CC(C)[C@@H](NC(=O)OCc1ccccc1)C(=O)N1CCC[C@H]1C(=O)Nc1ccc2c(c1)Cc1cc(NC(=O)[C@@H]3CCCN3C(=O)[C@H](NC(=O)OCc3ccccc3)C(C)C)ccc1-2 [Compound 8]	45.4

Now consider a different molecule.
Form field: reported EC50 of CCOC(=O)N[C@@H](C(=O)N1CCC[C@H]1C(=O)Nc1ccc2c(c1)Cc1cc(NC(=O)[C@@H]3CCCN3C(=O)[C@H](NC(=O)OCC)C(C)C)ccc1-2)C(C)C [Compound 6] 102

Data provenance is paper PMC8064491.
